Item-by-item account of Body weight of animals (After a tumor is removed)
test.name: In-vivo antitumor activity test in human stromal tumor SHG44 (subcutaneous tumor block in nude mice)
Design: species or system BALB/C nude mice
recorded.conditions: SHG44; 10 mg/kg, Ipx5 each week for 2 continuous weeks; d22; in g (unit assumed)
Write the number on its own, no unit after it.

Please review the following examples before continuing.
# molecule, measured
rows = [
    ("COc1cc(C(=O)NCCOCCOCCOCCOCCC(=O)NCC(=O)NCC(=O)N[C@@H](Cc2ccccc2)C(=O)NCC(=O)Nc2ccc(COC(=O)N3CCC(NC(=O)O[C@H]4CC[C@]5(C)C6CC[C@]7(C)[C@@H](c8ccc(=O)oc8)CC[C@]7(O)C6CC[C@@H]5C4)CC3)cc2)ccc1NC(=O)[C@@H]1N[C@@H](CC(C)(C)C)[C@](C#N)(c2ccc(Cl)cc2F)[C@H]1c1cccc(Cl)c1F (stereo partly shown) [Compound I-17]", 25.60),
    ("COc1cc(C(=O)NCCOCCOCCOCCOCCC(=O)NCC(=O)NCC(=O)N[C@@H](Cc2ccccc2)C(=O)NCC(=O)Nc2ccc(COC(=O)N3CCN(C(=O)O[C@H]4CC[C@@]5(C)[C@H](CC[C@@H]6[C@@H]5[C@H](O)C(=O)[C@]5(C)[C@@H](c7ccc(=O)oc7)CC[C@]65O)C4)CC3)cc2)ccc1NC(=O)[C@@H]1N[C@@H](CC(C)(C)C)[C@](C#N)(c2ccc(Cl)cc2F)[C@H]1c1cccc(Cl)c1F [Compound I-16]", 25.13),
    ("COc1cc(C(=O)NCCOCCOCCOCCOCCC(=O)N[C@@H](C(=O)N[C@@H](CCCNC(N)=O)C(=O)Nc2ccc(COC(=O)N3CCN(C(=O)O[C@H]4CC[C@@]5(C)[C@H](CC[C@@H]6[C@@H]5[C@H](O)C(=O)[C@]5(C)[C@@H](c7ccc(=O)oc7)CC[C@]65O)C4)CC3)cc2)C(C)C)ccc1NC(=O)[C@@H]1N[C@@H](CC(C)(C)C)[C@](C#N)(c2ccc(Cl)cc2F)[C@H]1c1cccc(Cl)c1F [Compound I-1]", 24.78),
]

Let us examine a further case.
Given the molecule COc1cc(C(=O)NCCOCCOCCOCCOCCC(=O)N[C@@H](C(=O)N[C@@H](CCCNC(N)=O)C(=O)Nc2ccc(COC(=O)N3CCC(NC(=O)O[C@H]4CC[C@]5(C)C6CC[C@]7(C)[C@@H](c8ccc(=O)oc8)CC[C@]7(O)C6CC[C@@H]5C4)CC3)cc2)C(C)C)ccc1NC(=O)[C@@H]1N[C@@H](CC(C)(C)C)[C@](C#N)(c2ccc(Cl)cc2F)[C@H]1c1cccc(Cl)c1F (stereo partly shown) [Compound I-4] , what is its reported Body weight of animals (After a tumor is removed)?
26.10

====

Test system: HCT116 (human colon cancer cells)
test.name: Tumor cell proliferation inhibition test, CCK-8 method (Example 21)
Type: cell-based
recorded.conditions: CCK-8, 72 h, Table 3; read-out: IC50 HCT116
Catalogue of pIC50 values
Kindly note that pIC50 refers to -log10 of the concentration in mol/L and answer with the value alone.

# molecule, pIC50
rows = [
    ("COc1cc(C(=O)NCCOCCOCCOCCOCCC(=O)N[C@@H](CCSC)C(=O)N[C@@H](CCCNC(N)=O)C(=O)Nc2ccc(COC(=O)N3CCC(NC(=O)O[C@H]4CC[C@]5(C)C6CC[C@]7(C)[C@@H](c8ccc(=O)oc8)CC[C@]7(O)C6CC[C@@H]5C4)CC3)cc2)ccc1NC(=O)[C@@H]1N[C@@H](CC(C)(C)C)[C@](C#N)(c2ccc(Cl)cc2F)[C@H]1c1cccc(Cl)c1F (some centres unmarked) [Compound I-14]", 6.32),
    ("COc1cc(C(=O)NCCOCCOCCOCCOCCOCCOCCC(=O)N[C@@H](C(=O)N[C@@H](CCCNC(N)=O)C(=O)Nc2ccc(COC(=O)N3CCC(NC(=O)O[C@H]4CC[C@]5(C)C6CC[C@]7(C)C(c8ccc(=O)oc8)CC[C@]7(O)C6CC[C@@H]5C4)CC3)cc2)C(C)C)ccc1NC(=O)[C@@H]1N[C@@H](CC(C)(C)C)[C@](C#N)(c2ccc(Cl)cc2F)[C@H]1c1cccc(Cl)c1F (some centres unmarked) [Compound I-7]", 5.89),
    ("COc1cc(C(=O)NCCOCCOCCOCCC(=O)N[C@H](C(=O)N[C@@H](CCCNC(N)=O)C(=O)Nc2ccc(COC(=O)N3CCN(C(=O)O[C@H]4CC[C@@]5(C)[C@H](CC[C@@H]6[C@@H]5[C@H](O)C(=O)[C@]5(C)C(c7ccc(=O)oc7)CC[C@]65O)C4)CC3)cc2)C(C)C)ccc1NC(=O)[C@@H]1N[C@@H](CC(C)(C)C)[C@](C#N)(c2ccc(Cl)cc2F)[C@H]1c1cccc(Cl)c1F (some centres unmarked) [Compound I-2]", 7.59),
    ("COc1cc(C(=O)NCCOCCOCCOCCOCCC(=O)N[C@H](C(=O)N[C@@H](C)C(=O)Nc2ccc(COC(=O)N3CCN(C(=O)O[C@H]4CC[C@@]5(C)[C@H](CC[C@@H]6[C@@H]5[C@H](O)C(=O)[C@]5(C)[C@@H](c7ccc(=O)oc7)CC[C@]65O)C4)CC3)cc2)C(C)C)ccc1NC(=O)[C@@H]1N[C@@H](CC(C)(C)C)[C@](C#N)(c2ccc(Cl)cc2F)[C@H]1c1cccc(Cl)c1F [Compound I-10]", 6.40),
    ("COc1cc(C(=O)NCCOCCOCCOCCC(=O)N[C@H](C(=O)N[C@@H](CCCNC(N)=O)C(=O)Nc2ccc(COC(=O)N3CCC(NC(=O)O[C@H]4CC[C@]5(C)C6CC[C@]7(C)[C@@H](c8ccc(=O)oc8)CC[C@]7(O)C6CC[C@@H]5C4)CC3)cc2)C(C)C)ccc1NC(=O)[C@@H]1N[C@@H](CC(C)(C)C)[C@](C#N)(c2ccc(Cl)cc2F)[C@H]1c1cccc(Cl)c1F (some centres unmarked) [Compound I-5]", 6.63),
]

I am curious: what pIC50 value has been reported for COc1cc(C(=O)NCCOCCOCCOCCOCCOCCOCCC(=O)N[C@@H](C(=O)N[C@@H](CCCNC(N)=O)C(=O)Nc2ccc(COC(=O)N3CCN(C(=O)O[C@H]4CC[C@@]5(C)[C@H](CC[C@@H]6[C@@H]5[C@H](O)C(=O)[C@]5(C)C(c7ccc(=O)oc7)CC[C@]65O)C4)CC3)cc2)C(C)C)ccc1NC(=O)[C@@H]1N[C@@H](CC(C)(C)C)[C@](C#N)(c2ccc(Cl)cc2F)[C@H]1c1cccc(Cl)c1F (some centres unmarked) [Compound I-8] ?
7.92

Entry COc1cc(C(=O)NCCOCCOCCOCCOCCC(=O)N[C@H](C(=O)N[C@@H](C)C(=O)Nc2ccc(COC(=O)N3CCC(NC(=O)O[C@H]4CC[C@]5(C)C6CC[C@]7(C)[C@@H](c8ccc(=O)oc8)CC[C@]7(O)C6CC[C@@H]5C4)CC3)cc2)C(C)C)ccc1NC(=O)[C@@H]1N[C@@H](CC(C)(C)C)[C@](C#N)(c2ccc(Cl)cc2F)[C@H]1c1cccc(Cl)c1F (some centres unmarked) [Compound I-11] : reported pIC50 = ?
7.57

Find the recorded pIC50 belonging to COc1cc(C(=O)NCCOCCOCCOCCOCCC(=O)N[C@@H](CCSC)C(=O)N[C@@H](CCCNC(N)=O)C(=O)Nc2ccc(COC(=O)N3CCN(C(=O)O[C@H]4CC[C@@]5(C)[C@H](CC[C@@H]6[C@@H]5[C@H](O)C(=O)[C@]5(C)[C@@H](c7ccc(=O)oc7)CC[C@]65O)C4)CC3)cc2)ccc1NC(=O)[C@@H]1N[C@@H](CC(C)(C)C)[C@](C#N)(c2ccc(Cl)cc2F)[C@H]1c1cccc(Cl)c1F [Compound I-13] and report it.
7.85
